target: hGLP-1R (Homo sapiens, UniProt P43220); experiment: cell-based or functional assay
Sequence (P43220 24-463): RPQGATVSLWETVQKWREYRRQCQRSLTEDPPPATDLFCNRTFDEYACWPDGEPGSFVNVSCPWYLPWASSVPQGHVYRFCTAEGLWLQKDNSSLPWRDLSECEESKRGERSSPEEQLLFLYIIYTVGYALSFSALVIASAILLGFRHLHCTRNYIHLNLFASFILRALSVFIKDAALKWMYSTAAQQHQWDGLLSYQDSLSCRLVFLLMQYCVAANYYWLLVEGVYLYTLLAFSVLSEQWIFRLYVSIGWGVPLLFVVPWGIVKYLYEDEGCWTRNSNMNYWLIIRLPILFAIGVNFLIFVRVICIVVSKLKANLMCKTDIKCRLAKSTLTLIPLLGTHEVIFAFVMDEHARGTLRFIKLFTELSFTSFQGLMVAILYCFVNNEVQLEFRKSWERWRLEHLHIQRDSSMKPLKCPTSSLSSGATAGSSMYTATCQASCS
Measured Relative cAMP EC50, nM (0.1% casein) by item

# binder, Relative cAMP EC50, nM (0.1% casein), nM
measured = [
    ("YXQGTFTSDFSXXLDKKAQXAFIEYLLEXGXSSGAPPPSGT (non-natural residues, acylated Lys, C-terminal amide; synthetic construct; SITE 2: note = 2-Aminoisobutyric Acid; SITE 12: note = L-ornithine; SITE 13: note = alpha-methyl-leucine; SITE 17: note = Lysine is chemically modified through conjugation of the epsilon-amino group of the Lysine side chain with (2-[2-(2-Amino-ethoxy)-ethoxy]-acetyl)2-(gamma-Glu)) [Example 184]", 5.02),
    ("HXQGTXTSDXXIXLDXKAQXNFIEYLLEGGPSSGEPPPE (synthetic construct; SITE 2: note = 2-Aminoisobutyric Acid; SITE 6: note = alpha-methyl-2-fluoro-L-phenylalanine; SITE 10: note = 3-(4-Pyridyl)-L-alanine; SITE 11: note = alpha-methyl-L-serine; SITE 13: note = alpha-methyl-leucine; SITE 16: note = L-ornithine; SITE 17: note = Lysine is chemically mo) [Example 478]", 0.243),
    ("YXQGTFTSDXSXXLDKKAQXAFIEYLLEXGPSSGAPPPSGS (Aib, F(4CN), Orn, αMeL; lipidated Lys; C-terminal amide; synthetic construct; SITE 2: note = 2-Aminoisobutyric Acid; SITE 10: note = 4-cyano-L-phenylalanine; SITE 12: note = L-ornithine; SITE 13: note = alpha-methyl-leucine; SITE 17: note = Lysine is chemically modified through conjugation of the epsilon-amino group of the Lysine side chain with (2-[2-(2-) [Example 178]", 4.01),
    ("YXQGTXTSDXXIXLDXKAQXNFIEYLIEGGPSSGEPPPEGE (synthetic construct; SITE 2: note = 2-Aminoisobutyric Acid; SITE 6: note = alpha-methyl-2-fluoro-L-phenylalanine; SITE 10: note = 3-(4-Pyridyl)-L-alanine; SITE 11: note = alpha-methyl-L-serine; SITE 13: note = alpha-methyl-leucine; SITE 16: note = L-ornithine; SITE 17: note = Lysine is chemically mo) [Example 483]", 0.188),
    ("YXQGTFTSDFSXXLDKKAQXAFIEYLLEAGPSSGEPPPSGS (non-natural residues; lysine acylated with AEEA linker C18 diacid; C-amide; synthetic construct; SITE 2: note = 2-Aminoisobutyric Acid; SITE 12: note = L-ornithine; SITE 13: note = alpha-methyl-leucine; SITE 17: note = Lysine is chemically modified through conjugation of the epsilon-amino group of the Lysine side chain with (2-[2-(2-Amino-ethoxy)-ethoxy]-acetyl)2-(gamma-Glu)) [Example 155]", 2.98),
    ("YXQGTXTSDXXIXLDXKAQXNFIEYLIEGGPSSGEPPPEEG (synthetic construct; SITE 2: note = 2-Aminoisobutyric Acid; SITE 6: note = alpha-methyl-2-fluoro-L-phenylalanine; SITE 10: note = 3-(4-Pyridyl)-L-alanine; SITE 11: note = alpha-methyl-L-serine; SITE 13: note = alpha-methyl-leucine; SITE 16: note = L-ornithine; SITE 17: note = Lysine is chemically mo) [Example 482]", 0.177),
    ("YXQGTFTSDFSXXLDKKAQXAFIEYLLEXGPSSGAPPPSGS (Aib, Orn, αMeL; lipidated Lys (AEEA-γGlu2-C18 diacid); C-term amide; synthetic construct; SITE 2: note = 2-Aminoisobutyric Acid; SITE 12: note = L-ornithine; SITE 13: note = alpha-methyl-leucine; SITE 17: note = Lysine is chemically modified through conjugation of the epsilon-amino group of the Lysine side chain with (2-[2-(2-Amino-ethoxy)-ethoxy]-acetyl)-(gamma-Glu)) [Example 192]", 9.77),
    ("YXQGTFTSDFSKXLDKKAQXAFIEYLLEGGESSGAPPPSGS (Aib, αMeL, (AEEA)2-γGlu-C18 diacid lysine acylation, C-terminal amide; synthetic construct; SITE 2: note = 2-Aminoisobutyric Acid; SITE 13: note = alpha-methyl-leucine; SITE 17: note = Lysine is chemically modified through conjugation of the epsilon-amino group of the Lysine side chain with (2-[2-(2-Amino-ethoxy)-ethoxy]-acetyl)2-(gamma-Glu)-CO-(CH2 )16-CO2H; SITE 20:) [Example 147]", 4.26),
    ("YXQGTXTSDXXIXLDXKAQXNFIEXLIEGGPSSGEPEPSEG (synthetic construct; SITE 2: note = 2-Aminoisobutyric Acid; SITE 6: note = alpha-methyl-2-fluoro-L-phenylalanine; SITE 10: note = 3-(4-Pyridyl)-L-alanine; SITE 11: note = alpha-methyl-L-serine; SITE 13: note = alpha-methyl-leucine; SITE 16: note = L-ornithine; SITE 17: note = Lysine is chemically mo) [Example 473]", 0.173),
    ("YXQGTXTSDXSIXLDXKAQXXFIEYLLEGGPSSGEPPPEEG (synthetic construct; SITE 2: note = 2-Aminoisobutyric Acid; SITE 6: note = alpha-methyl-2-fluoro-L-phenylalanine; SITE 10: note = 3-(4-Pyridyl)-L-alanine; SITE 13: note = alpha-methyl-leucine; SITE 16: note = L-ornithine; SITE 17: note = Lysine is chemically modified through conjugation of the epsil) [Example 494]", 0.211),
    ("YXQGTFTSDFSXXLDKKAQXAFIEYLLEGGXSSGAPPPGGS (non-natural residues; lysine acylated with AEEA linker C18 diacid; C-amide; synthetic construct; SITE 2: note = 2-Aminoisobutyric Acid; SITE 12: note = L-ornithine; SITE 13: note = alpha-methyl-leucine; SITE 17: note = Lysine is chemically modified through conjugation of the epsilon-amino group of the Lysine side chain with (2-[2-(2-Amino-ethoxy)-ethoxy]-acetyl)-(gamma-Glu)) [Example 163]", 6.5),
    ("YXQGTXTSDXSIXLDXKAQXXFIEXLIEGGPSSGEPPPEEG (synthetic construct; SITE 2: note = 2-Aminoisobutyric Acid; SITE 6: note = alpha-methyl-2-fluoro-L-phenylalanine; SITE 10: note = 3-(4-Pyridyl)-L-alanine; SITE 13: note = alpha-methyl-leucine; SITE 16: note = L-ornithine; SITE 17: note = Lysine is chemically modified through conjugation of the epsil) [Example 475]", 0.254),
    ("YXQGTFTSDFSXXLDKKAQXAFIEXLLEGGPSSGAPPPGGS (synthetic construct; SITE 2: note = 2-Aminoisobutyric Acid; SITE 12: note = L-ornithine; SITE 13: note = alpha-methyl-leucine; SITE 17: note = Lysine is chemically modified through conjugation of the epsilon-amino group of the Lysine side chain with (2-[2-(2-Amino-ethoxy)-ethoxy]-acetyl)-(gamma-Glu)) [Example 496]", 9.69),
]

Source listed as patent US20240270821A1.
